Here's a batch of compounds along with measured GI50 for HCT-15.

// solved cases for GI50 follow
>>> measured_value("COc1ccc(/C=C2/C(=O)N(C(=O)c3ccccc3O)N=C2C)cc1OC")
"0.64 µM"
>>> measured_value("COc1ccc(C2c3cc4c(cc3OC(O)(CO)C2C(=O)O)OCO4)c(OC)c1OC.COc1ccc(C2c3cc4c(cc3OC3(O)COC(=O)C23)OCO4)c(OC)c1OC (stereo unspecified)")
"> 100 µM"
>>> measured_value("COc1ccc2c(cnc3c4cc(OC)c(OC)cc4ccc23)c1")
"> 100 µM"

Attention now turns to another entry.
Give recorded GI50 with HCT-15 for the following compound: CC1=NN(c2cccc(Cl)c2)C2(C1)SCC(=O)N2c1nc2ccccc2s1 (stereo unspecified)
33.2 µM

---

Test system: DLD-1
ASSAY_METHOD_TEXT: NCI tumour cell line growth inhibition, 48 h
Active and inactive are the calls of the source. Cut-off read from the data, not from the text of the source: active = GI50 up to about 1.1 µM and inactive = higher.
RECORDED_METRIC: GI50

// solved cases for GI50 follow
>>> measured_value("NCCCNCCSSCCCCS(=O)O")
"45.8 µM (inactive)"
>>> measured_value("CC(=O)/C=C1/c2ccccc2N(C(C)=O)C1O (stereo not given)")
"> 100 µM (inactive)"
>>> measured_value("CC(=O)C1=C(C)Cn2c(=O)c3ccccc3c(=O)n2C1")
"> 100 µM (inactive)"
>>> measured_value("Cc1ns/c(=N\\C(=S)N(C)C)n1C")
"> 100 µM (inactive)"

Attention now turns to another entry.
Give recorded GI50 with DLD-1 for the following compound: "CCCCCCCCCCCC[N+](CCCCCCCCCCCC)=C1SCCS1"
8.47 µM (inactive)

---

Below, each entry is listed with its recorded GI50.
Tested on: A498
ASSAY_METHOD_TEXT: NCI tumour cell line growth inhibition, 48 h
Calls of active or inactive are those of the source. Rule as the data show it: active = GI50 up to about 1.1 µM and inactive = higher.

// solved cases for GI50 follow
>>> measured_value("COc1cc(OC)c2c(c1-c1ccc(C)cc1)CC(C)N(Cc1ccccc1)[C@H]2C (some centres undefined)")
"87.7 µM (inactive)"
>>> measured_value("Cc1ccc2[nH]c3[nH]c(=S)[nH]c(=O)c3c2c1")
"> 100 µM (inactive)"
>>> measured_value("O=C(O)Cc1c[nH]c2ccc(F)cc12")
"> 100 µM (inactive)"

Attention now turns to another entry.
GI50 lookup needed for "OCCN(CO)CO" , thanks.
> 100 µM (inactive)

---

System: SNB-19
ASSAY_METHOD_TEXT: NCI tumour cell line growth inhibition, 48 h
Active and inactive are the calls of the source. Cut-off read from the data, not from the text of the source: active = GI50 up to about 1.1 µM and inactive = higher.
Bench note: report the call from True = active, False = inactive

>>> group("COc1ccc(S(=O)(=O)NNS(C)(=O)=O)cc1")
"False"

Recorded test outcome, item CC(C(=O)N1C(=O)N(C(=O)C(C)C(O)c2ccccc2)C2CCCCC21)C(O)c1ccccc1 (stereo not given)
False

---

System: BT-549
ASSAY_METHOD_TEXT: NCI tumour cell line growth inhibition, 48 h
Calls of active or inactive are those of the source. Rule as the data show it: active = GI50 up to about 1.1 µM and inactive = higher. Non-standard residues stand in square brackets, D forms with d. Residues, ends and D or L forms follow the SMILES beside them. β3hI = CC[CH](C)[CH](N)CC(=O)O
Below, each entry is listed with its recorded GI50.

// solved cases for GI50 follow
>>> measured_value("CCC(C)C(CC(=O)N1CCCC1C(=O)NC(C(=O)NC(C(=O)NCC(=O)NC(CC(N)=O)C(=O)NC(C(=O)NC(C(=O)NC(CCCCN)C(N)=O)C(C)CC)C(C)CC)C(C)C)C(C)CC)NC(=O)C(N)C(C)CC (stereo not drawn) (H-I[β3hI]PIVGNIIK-NH2; configuration not given here)")
"> 50 µM (inactive)"
>>> measured_value("O=C1C=CC(=O)N1n1c(Cc2ccccc2)n[nH]c1=O")
"> 100 µM (inactive)"
>>> measured_value("Cc1cccc(-c2cc(O)c3c(C)cc(C)nc3n2)c1")
"3.73 µM (inactive)"
>>> measured_value("COc1ccc(-c2c(CN3CCOCC3)sc3nc4ccccc4n23)cc1")
"> 49.4 µM (inactive)"
>>> measured_value("CCN(CC)c1ccc2cc(C(N)=S)c(=N)oc2c1")
"37.9 µM (inactive)"

Give recorded GI50 with BT-549 for the following compound: "COc1ccccc1NC(=S)N/N=C/c1cccc(C)n1"
15.1 µM (inactive)

Give recorded GI50 with BT-549 for the following compound: "C=CCn1c(=O)c(C)cn(COCCO)c1=O"
> 100 µM (inactive)

Give recorded GI50 with BT-549 for the following compound: C=C1C(=O)[C@@]23CC1C(O)[C@@H](OC(C)=O)[C@@H]2C1(C)C(OC(C)=O)C[C@@H](OC(C)=O)C(C)(C)[C@@H]1C[C@H]3OC(C)=O (stereo partly drawn)
1.47 µM (inactive)

---

Below, each entry is listed with its recorded GI50.
Tested on: RXF 393
ASSAY_METHOD_TEXT: NCI tumour cell line growth inhibition, 48 h
Activity calls are given as the source filed them. No stated cut-off is given here; in the data, active = GI50 up to about 1.1 µM and inactive = higher.

// solved cases for GI50 follow
>>> measured_value("CC1=NN(C(=O)CC(=O)Nc2ccccc2C)C(=O)C1/N=N/c1ccc(C(=O)O)cc1 (configuration not stated)")
"> 100 µM (inactive)"
>>> measured_value("COC(=O)/C(=N/NC(=O)C[N+](C)(C)C)C(C(=O)OC)C(=O)C(=O)Nc1ccc(F)cc1 (configuration not stated)")
"> 100 µM (inactive)"
>>> measured_value("OCC(CN1CCCCC1)(CN1CCCCC1)CN1CCCCC1")
"> 100 µM (inactive)"
>>> measured_value("[Zn+2][N+]12CCN3CCN4CCN(CC1)[PH]432 (configuration not stated)")
"> 100 µM (inactive)"
>>> measured_value("CC(C)[C@H](NC(=O)OCc1ccccc1)C(=O)N[C@H](/C=C/C(=O)OC(C)(C)C)CO")
"> 100 µM (inactive)"
>>> measured_value("Cn1cc(C[C@@H](N)C(=O)O)c2ccccc21")
"20 µM (inactive)"

GI50 lookup needed for "O=C(O)CNCc1c2ccccc2nc2ccccc12" , thanks.
32.4 µM (inactive)

GI50 lookup needed for COc1cccc(N2C(=O)C3c4[nH]c5ccc(C)cc5c4C4CCC(C)CC4C3C2=O)c1 (configuration not stated) , thanks.
18.3 µM (inactive)

---

Tested on: RXF 393
ASSAY_METHOD_TEXT: NCI tumour cell line growth inhibition, 48 h
Calls of active or inactive are those of the source. Cut-off read from the data, not from the text of the source: active = GI50 up to about 1.1 µM and inactive = higher.
Below, each entry is listed with its recorded GI50.

// solved cases for GI50 follow
>>> measured_value("O=C1CCc2cc(Br)ccc2O1")
"28.2 µM (inactive)"
>>> measured_value("CC1(C)OC(COCCOCCCCCO)C(COCCOCCCCCO)O1 (stereo unspecified)")
"> 100 µM (inactive)"
>>> measured_value("C[S+](C)([O-])=Nn1c(=O)n2n(c1=O)[C@H]1CC[C@@H]2C1")
"> 100 µM (inactive)"
>>> measured_value("N=C(N)n1nc2c(c1O)CCC2")
"> 100 µM (inactive)"
>>> measured_value("Cc1cc2nc3ccccc3n2c2ccccc12")
"> 10 µM (inactive)"
>>> measured_value("CC12Nc3ccccc3C1=C(c1ccccc1)CC1C(=O)OC(=O)C12 (stereo unspecified)")
"> 100 µM (inactive)"
>>> measured_value("CC(=O)OCC1OC(n2c(C)c(C(C)=O)c(-c3ccc(Cl)cc3)c(C#N)c2=S)C(OC(C)=O)C(OC(C)=O)C1OC(C)=O (stereo unspecified)")
"> 100 µM (inactive)"
>>> measured_value("O=C1/C(=C/c2ccc(O)cc2)CC/C1=C\\c1ccc(O)cc1")
"> 100 µM (inactive)"

GI50 lookup needed for "Cc1ccsc1C(=S)Nc1ccc(Cl)c(/C=N/OC(C)C)c1" , thanks.
20.5 µM (inactive)

GI50 lookup needed for "C=CCn1c(=O)c(C)cn(COCCO)c1=O" , thanks.
> 100 µM (inactive)

GI50 lookup needed for "O=[N+]([O-])c1ccc2nc3c(nc2c1)-c1c2ccccc2cc2cccc-3c12" , thanks.
8.41 µM (inactive)

---

Below, each entry is listed with its recorded GI50.
Tested on: TK-10
ASSAY_METHOD_TEXT: NCI tumour cell line growth inhibition, 48 h
The source made the active and inactive calls. Rule as the data show it: active = GI50 up to about 1.1 µM and inactive = higher.

// solved cases for GI50 follow
>>> measured_value("O=C(O)/C=C/C(=O)O")
"> 100 µM (inactive)"
>>> measured_value("CCCCCC(=O)OCCOCCOCCOCCOCCOCc1ccccc1")
"> 100 µM (inactive)"
>>> measured_value("CCCCCCCCCCCCOC1C(COCCN2CCCC2)OC2OC(C)(C)OC21 (stereo unspecified)")
"1.66 µM (inactive)"
>>> measured_value("C=C(CN(C)C)C(=O)c1cc(C)ccc1C")
"8.95 µM (inactive)"
>>> measured_value("O=C(Cc1nc2ccccc2[nH]c1=O)c1c[nH]c2ccccc12")
"7.57 µM (inactive)"

GI50 lookup needed for CCC1(c2ccccc2)C(=O)N=C(c2ccccc2)N1CCc1ccccc1 (stereo unspecified) , thanks.
> 100 µM (inactive)

Numbers sourced from ChEMBL document CHEMBL1201862.
